Sourced from patent US20090215758A1

Measurement Target: VR1 (human) (Homo sapiens)
Construct: expressed in transfected cells; host or cells: CHO K1 cells (ECACC), stably transfected
Sequence (Q8NER1 whole entry): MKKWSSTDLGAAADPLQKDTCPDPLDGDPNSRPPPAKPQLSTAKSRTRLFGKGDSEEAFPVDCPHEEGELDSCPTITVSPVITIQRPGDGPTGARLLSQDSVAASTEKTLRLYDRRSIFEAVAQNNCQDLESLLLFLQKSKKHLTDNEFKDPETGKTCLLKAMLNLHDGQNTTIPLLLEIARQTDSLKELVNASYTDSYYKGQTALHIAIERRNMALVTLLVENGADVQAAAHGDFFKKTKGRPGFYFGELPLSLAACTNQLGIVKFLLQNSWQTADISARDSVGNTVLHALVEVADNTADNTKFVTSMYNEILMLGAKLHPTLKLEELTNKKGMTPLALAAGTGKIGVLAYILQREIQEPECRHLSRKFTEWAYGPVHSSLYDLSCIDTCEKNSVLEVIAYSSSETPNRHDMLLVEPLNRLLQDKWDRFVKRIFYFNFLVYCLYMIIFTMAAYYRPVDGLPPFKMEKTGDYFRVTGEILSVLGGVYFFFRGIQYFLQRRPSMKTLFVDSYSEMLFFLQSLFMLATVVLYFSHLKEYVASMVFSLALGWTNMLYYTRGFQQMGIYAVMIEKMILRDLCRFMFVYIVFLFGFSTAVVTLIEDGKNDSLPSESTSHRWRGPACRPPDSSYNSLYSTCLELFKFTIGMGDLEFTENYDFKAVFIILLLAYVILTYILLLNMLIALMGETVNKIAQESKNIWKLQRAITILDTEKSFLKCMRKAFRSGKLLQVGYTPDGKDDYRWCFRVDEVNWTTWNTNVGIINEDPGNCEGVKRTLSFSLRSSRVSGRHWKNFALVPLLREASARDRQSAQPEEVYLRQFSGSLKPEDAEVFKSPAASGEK
Method Notes: Functional study on vanilloid receptor (VR1), FLIPR Ca2+ assay in CHO K1 cells stably transfected with the VR1 gene
Type: cell-based
Experimental Setup: test compound 10 μM; Ca2+ signal relative to 10 μM capsaicin (CP)
Listing of entries alongside the reported VR1 (human) (% stimulation compared to 10 μM CP).
Write the answer as a number in %, unit excluded.

Examples with their reported VR1 (human) (% stimulation compared to 10 μM CP) follow.
Compound	Unit Abbrev	Result Value
O=C1N=C(N2CCOCC2)SC1=Cc1cccc(C(F)(F)F)c1 [Example 206]	%	77.26
Br.O=C1N=C(N2CCSCC2)SC1=CC=Cc1ccccc1 [Example 190]	%	34.09

Lab note: CC(C)c1ccc(C=C2SC(N3CCOCC3)=NC2=O)cc1 [Example 135] gave VR1 (human) (% stimulation compared to 10 μM CP) of 85.02

Lab note: Cc1ccc(C=C2SC(N3CCOCC3)=NC2=O)cc1 [Example 218] gave VR1 (human) (% stimulation compared to 10 μM CP) of 17.91

Lab note: CC(C)(C)c1ccc(C=C2SC(N3CCOCC3)=NC2=O)cc1 [Example 222] gave VR1 (human) (% stimulation compared to 10 μM CP) of 41.92

Lab note: Br.CC(C)c1ccc(C=C2SC(N3CCOCC3)=NC2=O)cc1 [Example 179] gave VR1 (human) (% stimulation compared to 10 μM CP) of 5.04

----------
Measurement Target: vanilloid receptor 1 (VR1/TRPV1) of the rat species (Rattus norvegicus, UniProt O35433)
Construct: The spinal column is removed from beheaded rats; from tissue; host or cells: primary cells from rat dorsal root ganglia (DRGs)
Sequence (O35433 whole entry): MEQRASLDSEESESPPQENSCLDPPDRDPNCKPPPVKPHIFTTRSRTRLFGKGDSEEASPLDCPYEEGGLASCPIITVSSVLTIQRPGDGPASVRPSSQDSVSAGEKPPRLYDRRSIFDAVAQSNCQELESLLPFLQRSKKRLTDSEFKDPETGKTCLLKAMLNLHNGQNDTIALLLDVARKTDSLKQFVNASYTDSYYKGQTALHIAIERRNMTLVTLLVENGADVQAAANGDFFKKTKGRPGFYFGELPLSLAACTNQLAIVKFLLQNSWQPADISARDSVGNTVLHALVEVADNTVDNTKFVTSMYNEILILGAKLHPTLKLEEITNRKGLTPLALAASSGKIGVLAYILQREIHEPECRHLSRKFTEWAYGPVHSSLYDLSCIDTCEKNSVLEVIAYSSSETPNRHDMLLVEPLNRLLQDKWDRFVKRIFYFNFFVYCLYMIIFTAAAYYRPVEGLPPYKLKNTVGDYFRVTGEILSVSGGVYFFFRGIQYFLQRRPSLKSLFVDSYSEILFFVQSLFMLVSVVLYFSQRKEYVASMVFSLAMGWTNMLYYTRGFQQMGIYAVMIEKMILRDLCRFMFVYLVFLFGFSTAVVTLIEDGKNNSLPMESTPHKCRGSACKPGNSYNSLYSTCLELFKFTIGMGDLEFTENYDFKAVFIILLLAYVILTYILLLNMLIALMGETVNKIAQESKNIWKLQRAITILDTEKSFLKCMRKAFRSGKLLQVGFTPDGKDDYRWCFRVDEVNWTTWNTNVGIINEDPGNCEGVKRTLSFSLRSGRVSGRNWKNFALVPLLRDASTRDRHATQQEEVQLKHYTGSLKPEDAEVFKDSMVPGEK
Method Notes: Functional study on vanilloid receptor 1, FLIPR Ca2+ assay in rat dorsal root ganglia cells
Format: cell-based
Experimental Setup: test compound 10 μM, 5 min incubation, then 100 nM capsaicin; relative to maximum inhibition with 10 μM capsaicin; read-out: VR1 (rat) (% inhibition compared to 10 μM CP)
Measurement Kind: inhibition at 10 µM (%)
Write the answer as a number in %, unit excluded.

Examples with their reported inhibition at 10 µM follow.
Molecule	inhibition at 10 µM [%]
Cc1ccc(C=C2SC(N3CCN(Cc4ccccc4)CC3)=NC2=O)cc1 [Example 63]	70.9
COc1ccc(C=C2SC(N3CCOCC3)=NC2=O)cc1 [Example 228]	4.84
O=C1N=C(N2CCOCC2)SC1=Cc1ccc(OS(=O)(=O)c2ccccc2)cc1 [Example 234]	98.1
O=C1N=C(N2CCSCC2)SC1=Cc1ccc(OC(F)(F)F)cc1 [Example 24]	91.3
O=C1N=C(N2CCSCC2)SC1=Cc1ccc2ccccc2c1 [Example 54]	87.9
O=C1N=C(N2CCOCC2)SC1=Cc1ccc(Oc2ccccc2)cc1 [Example 17]	91.1
O=C1N=C(N2CCN(c3ncccc3Cl)CC2)SC1=Cc1ccc2ccccc2c1 [Example 49]	78.5
COc1cc(C=C2SC(N3CCN(c4ccccc4)CC3)=NC2=O)ccc1O [Example 68]	11.6
O=C1N=C(N2CCOCC2)SC1=CC=CSc1ccccc1 [Example 12]	68.4
O=C(NC1=NC(=O)C(=Cc2ccc(C(F)(F)F)cc2)S1)Nc1ccccc1C(F)(F)F [Example 96]	27

Lab note: CC(=CC=C1SC(N2CCOCC2)=NC1=O)c1cccc(C(F)(F)F)c1 [Example 44] gave inhibition at 10 µM of 64.3
